Ref: paper PMC9395450

# ASSAY NAME: Phase 1 drug-drug interaction study: single-dose pevonedistat plasma PK in the absence or presence of rifampin
# Format: in vivo, human
# TEST PARAMETERS: human, plasma, iv, 50 mg/m2, single 50 mg/m^2 IV, in the absence of rifampin (Day 1), N=20; read-out: AUC∞ geometric mean (CV)
PARAMETER: AUC(0-inf)
Please append the unit to your numeric answer.

Prompt: # AUC(0-inf) lookup, item NS(=O)(=O)OC[C@@H]1C[C@@H](n2ccc3c(N[C@H]4CCc5ccccc54)ncnc32)C[C@@H]1O
Completion: 3030 ng·h/mL

====

# ASSAY NAME: Phase 1 drug-drug interaction study: single-dose pevonedistat plasma PK in the absence or presence of rifampin
# Type: in vivo, human
# TEST PARAMETERS: human; plasma, single 50 mg/m^2 1-h IV infusion, in the presence of rifampin 600 mg daily (Day 10), N=17; read-out: Cmax geometric mean (CV)
PARAMETER: Cmax (ng/mL)
Please reply with the bare figure in ng/mL and do not write the unit itself.

Prompt: Given NS(=O)(=O)OC[C@@H]1C[C@@H](n2ccc3c(N[C@H]4CCc5ccccc54)ncnc32)C[C@@H]1O [pevonedistat, Pevonedistat] , state its recorded Cmax.
Completion: 564

====

# ASSAY NAME: Phase 1 drug-drug interaction study: single-dose pevonedistat plasma PK in the absence or presence of rifampin
# Type: in vivo, human
# TEST PARAMETERS: human, plasma, iv, 50 mg/m2, single 50 mg/m^2 IV, in the absence of rifampin (Day 1), N=20; read-out: t1/2z mean (SD) (converted)
PARAMETER: half-life

Prompt: # get_value(readout='half-life', item= NS(=O)(=O)OC[C@@H]1C[C@@H](n2ccc3c(N[C@H]4CCc5ccccc54)ncnc32)C[C@@H]1O )
Completion: ~7 h

====

# ASSAY NAME: Phase 1 drug-drug interaction study: single-dose pevonedistat plasma PK in the absence or presence of rifampin
# Type: in vivo, human
# TEST PARAMETERS: human, plasma, iv, 50 mg/m2, plasma clearance, single 50 mg/m^2 IV, in the presence of rifampin (Day 10), N=17; read-out: CL geometric mean (CV) (converted)
PARAMETER: clearance (mL/min)
# unit: mL/min | format: bare number

Prompt: Which clearance value belongs to NS(=O)(=O)OC[C@@H]1C[C@@H](n2ccc3c(N[C@H]4CCc5ccccc54)ncnc32)C[C@@H]1O ?
Completion: 692

====

# ASSAY NAME: Phase 1 drug-drug interaction study: single-dose pevonedistat plasma PK in the absence or presence of rifampin
# Assay type: in vivo, human
# TEST PARAMETERS: human, plasma, intravenous, mixed-effects model, in the presence of rifampin, N=17; read-out: Cmax LS mean
PARAMETER: Cmax (ng/mL)
Dear colleague, please return just the value in ng/mL, with no unit written.

Prompt: GET /values?readout=Cmax&item= NS(=O)(=O)OC[C@@H]1C[C@@H](n2ccc3c(N[C@H]4CCc5ccccc54)ncnc32)C[C@@H]1O
Completion: 579

====

# ASSAY NAME: Phase 1 drug-drug interaction study: single-dose pevonedistat plasma PK in the absence or presence of rifampin
# Assay type: in vivo, human
# TEST PARAMETERS: human, plasma, intravenous, mixed-effects model, in the presence of rifampin, N=17; read-out: AUC∞ LS mean
PARAMETER: AUC(0-inf)
# output: numeric value plus its unit

Prompt: Recorded AUC(0-inf) for NS(=O)(=O)OC[C@@H]1C[C@@H](n2ccc3c(N[C@H]4CCc5ccccc54)ncnc32)C[C@@H]1O [pevonedistat, Pevonedistat] , please?
Completion: 2390 ng·h/mL
